Listing of entries alongside the reported Kd.
target.system: T1, recombinant Fc-TrkB antigen (human) (human, UniProt Q16620 32-430, limits assumed)
T1 construct: Biotinylated for the ForteBio assays; also called Fc-hTrkB; human Fc-TrkB; not shown: Fc part
method.summary: BLI (ForteBio Octet), biotinylated Fc-TrkB on streptavidin sensors, Fab at 1E-7 M
observation.type: Kd (nM)

Fab TR135-8 (Fab, V domains shown, Fab with human V-segments, expressed in E. coli; detected with anti-human kappa) VH: QVQLVQSGAEVKKPGASVKVSCKASGYTFTAYDMHWVRQAPGQGLEWMGWIDPNSGGTRYAQKFQGRVTMTRDTSISTAYMELSRLTSDDTAVYYCTGVTTWFAYWGQGTLVTVSS VL: MDVVMTQSPLSLPVTLGQPASISCRSSQSLVHSNGNTYLNWYQQKPGQPPRLLIYKISNRFSGVPDRFSGSGAGTDFTLKISRVEAEDVGVYYCMQGTHEPYTFGQGKLEIK ... 31.9
Fab TR139-2 (Fab, V domains shown, Fab with human V-segments, expressed in E. coli) VH: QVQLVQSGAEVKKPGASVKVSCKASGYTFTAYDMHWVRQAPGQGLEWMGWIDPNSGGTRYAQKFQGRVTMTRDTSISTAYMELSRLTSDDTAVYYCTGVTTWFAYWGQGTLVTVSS VL: MDVVMTQSPLSLPVTLGQPASISCRSSQSLVHSNGNTYLSWLQQRPGQPPRLLIYKISNRFSGVPDRFSGSGAGTDFTLKISRVEAEDVGVYYCMQGTHEPYTFGQGKLEIK ... 14.2
Fab TR144-1 (Fab, V domains shown, Fab with human V-segments, expressed in E. coli) VH: QVQLVQSGAEVKKPGASVKVSCKASGYTFTAYDMHWVRQAPGQGLEWMGWIDPRSGDTSYKQKFQGRVTMTRDTSISTAYMELHRLRSDDTAVYYCTGVTTWFAYWGQGTLVTVSS VL: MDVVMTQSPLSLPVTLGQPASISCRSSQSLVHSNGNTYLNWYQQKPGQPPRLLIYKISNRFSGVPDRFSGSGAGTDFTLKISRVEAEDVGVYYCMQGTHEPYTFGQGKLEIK ... 29.7
Fab TR134-4 (Fab, V domains shown, Fab with human V-segments, expressed in E. coli) VH: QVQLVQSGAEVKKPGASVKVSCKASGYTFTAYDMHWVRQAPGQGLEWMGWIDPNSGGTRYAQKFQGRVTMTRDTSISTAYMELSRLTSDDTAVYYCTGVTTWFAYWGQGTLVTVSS VL: MDVVMTQSPLSLPVTLGQPASISCRSSQSLLHSNGNTYLNWYQQTPGQPPRLLIYKISNRFSGVPDRFSGSGAGTDFTLKISRVEAEDVGVYYCMQGTHEPYTFGQGKLEIK ... 35.6

Reference source for all entries: patent US20110097326A1
